Each entry below lists one item and its recorded Papp value.
# assayDetails: in vitro
# testParameters: human, Caco-2, Caco-2 (cm/sec) Papp
Where a SMILES comes first, the peptide text is derived from it. Bridges are numbered along the chain shown (N, C = ends). [ ]: non-standard residue; d: D form. The star is where a group is joined. NMeF = CN[C@@H](Cc1ccccc1)C(=O)O; NMeL = CN[C@@H](CC(C)C)C(=O)O; NMeA = CN[C@@H](C)C(=O)O; Piperidide = C1CCN(*)CC1; Sar = CNCC(=O)O
valueType: Papp

| molecule | assayValue |
| --- | --- |
| CC[C@H](C)[C@@H]1NC(=O)[C@H](Cc2ccccc2)N(C)C(=O)[C@H](C)N(C)C(=O)C[C@@H](C(=O)N(C)[C@@H](Cc2ccccc2)C(=O)N(C)[C@@H](Cc2ccccc2)C(=O)N[C@@H](C)C(=O)N2CCCCC2)NC(=O)[C@H](CC(C)C)N(C)C(=O)[C@H](Cc2ccccc2)N(C)C(=O)[C@H]([C@@H](C)O)NC(=O)[C@H](CC(C)C)N(C)C(=O)[C@H](CC(C)C)N(C)C(=O)[C@H](C)N(C)C1=O [pd240] ([NMeA][NMeF]I[NMeA][NMeL][NMeL]T[NMeF][NMeL]D[NMeF][NMeF]A-Piperidide; lactam N-10) | 0.06 ×10⁻⁶ cm/s |
| CC(C)C[C@@H]1NC(=O)[C@H](Cc2ccccc2)N(C)C(=O)C[C@@H](C(=O)N2CCCCC2)NC(=O)[C@H](CC(C)C)N(C)C(=O)CN(C)C(=O)[C@H]([C@@H](C)O)NC(=O)[C@H](Cc2ccccc2)N(C)C(=O)[C@H](Cc2ccccc2)N(C)C(=O)[C@H](CC(C)C)NC(=O)[C@H](Cc2ccccc2)N(C)C(=O)[C@H](CC(C)C)N(C)C1=O [pd227] ([NMeF]L[NMeL][NMeF]L[NMeF][NMeF]T[Sar][NMeL]D-Piperidide; lactam N-11) | 0.61 ×10⁻⁶ cm/s |

Where do the numbers come from? From patent US20230096766A1.
